From: patent US20200190197A1

# assayedSystem: T1, His-tagged PD-L1 protein (human, UniProt Q9NZQ7 19-238)
# T1 construct: also called His-tagged antigen PD-L1 protein; human PD-L1; not shown: His tag
# T1 sequence (Q9NZQ7 19-238 limits assumed): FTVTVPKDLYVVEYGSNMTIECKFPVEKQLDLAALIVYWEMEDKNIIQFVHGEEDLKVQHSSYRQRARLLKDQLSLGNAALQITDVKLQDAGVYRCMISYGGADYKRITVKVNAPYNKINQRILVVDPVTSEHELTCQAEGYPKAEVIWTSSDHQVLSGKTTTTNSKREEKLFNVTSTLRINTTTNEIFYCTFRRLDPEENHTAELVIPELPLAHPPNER
# protocolDetails: SPR, Biacore T200, full-length IgG, 1:1 interaction model
measuredProperty: kon (M⁻¹ s⁻¹)
API: value field is a number in M⁻¹ s⁻¹; no unit string.

// worked examples, kon included
{"binder": "AS02013 (humanized full-length IgG) (antibody, V domains shown, Full-length IgG expressed in HEK293 cells, protein A purified) VH: EVQLVQSGAEVKKPGESLKISCKGSGYSFTSYSINWVRQAPGKGLEWMGYFYVGNGYTDYNEKFKGRVTMTRNTSISTAYMELSSLRSEDTAVYYCARGGLPYYFDYWGQGTLVTVSS VL: DIQLTQSPSSLSASVGDRVTITCKTSQDVNTAVAWYQQKPGQAPRLLIYWASTRHTGVPSRFSGSGSGTDFTLTISSLQPEDFATYYCQQHYNTPLTFGGGTKLEIKR", "measuredProperty": "kon", "dataValue": 367000}
{"binder": "murine-human chimeric antibody derived from murine PDL1#10 (Chimeric IgG) (antibody, V domains shown, also called mouse-human chimeric antibody) VH: EVQLQQSGAELVRPGSSVKMSCKTSGYTFTSYSINWVKQRPGQGLEWIAYFYVGNGYTDYNEKFKGKATLTSDTSSSTAYMQLSSLTSEDSAIYFCARGGLPYYFDYWGQGTTLTVSS VL: DIVMTQSHKFMSTSVGDRVSITCKTSQDVNTAVAWYQQKPGHSPKLLFYWASTRHTGVPDRFTGGGSGTDYTLTISSVQAEDLALYYCQQHYNTPLTFGAGTRLELKR", "measuredProperty": "kon", "dataValue": 336000}
{"binder": "AS01814 (humanized full-length IgG) (antibody, V domains shown, Full-length IgG expressed in HEK293 cells, protein A purified) VH: QVQLVQSGSELKKPGASVKVSCKASGYTFTSYSINWVRQAPGKGLEWVAYFYVGNGYTDYNEKFKGRVTITADESTSTAYMELSSLRSEDTAVYYCARGGLPYYFDYWGQGTLVTVSS VL: DIQMTQSPSTLSASVGDRVTITCKTSQDVNTAVAWYQQKPGKAPKLLLYWASTRHTGIPARFSGSGSGTEFTLTISSLQSEDFAVYYCQQHYNTPLTFGGGTKLEIKR", "measuredProperty": "kon", "dataValue": 376000}

Now for a further binder.
Request: Entry AS01790 (humanized full-length IgG) (antibody, V domains shown, Full-length IgG expressed in HEK293 cells, protein A purified) VH: EVQLVQSGAEVKKPGESLKISCKGSGYSFTSYSINWVRQMPGKGLEWMGYFYVGNGYTDYNEKFKGRVTMTRNTSISTAYMELSSLRSEDTAVYYCARGGLPYYFDYWGQGTLVTVSS VL: DIQMTQSPSTLSASVGDRVTITCKTSQDVNTAVAWYQQKPGKAPKLLIYWASTRHTGVPSRFSGSGSGTEFTLTISSLQPEDFATYYCQQHYNTPLTFGGGTKLEIKR : reported kon = ?
Response: 329000
